B1: library; numbered along this chain (parent)
chain: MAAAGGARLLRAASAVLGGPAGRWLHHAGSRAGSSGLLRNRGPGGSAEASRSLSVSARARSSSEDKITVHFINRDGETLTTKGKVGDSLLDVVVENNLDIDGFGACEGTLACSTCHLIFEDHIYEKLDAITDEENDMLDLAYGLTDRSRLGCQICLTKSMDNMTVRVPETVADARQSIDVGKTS

Variants of: B1
ASSAY_METHOD_TEXT: scaled log2 fold change in cell abundance, elesclomol vs control (0 = silent mean, 1 = nonsense mean) (scaled log2 ratio); higher = higher viability under elesclomol (loss of FDX1 cuproptosis function);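 also: variant abundance is its share of total variant reads in each endpoint sample, from next-generation sequencing of the integrated ORF PCR-amplified out of genomic DNA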
ASSAY_SETUP: with ABC1 FDX1 KO; elesclomol 5 nM; glucose 10 mM; 14 days

# CHANGES, scaled log2 fold change
records = [
    ("L25Q", -0.0213),
    ("E120F", 0.141),
    ("K82N", -0.873),
    ("A7Q", -0.0571),
    ("H27M", 0.0388),
    ("F103W", 0.392),
    ("L90E", 0.187),
    ("M163S", -0.173),
    ("D75A", -0.423),
    ("S54N", -0.135),
    ("R51A", 0.176),
    ("R11A", 0.289),
    ("A49T", 0.0135),
    ("K158Q", -0.363),
    ("M163F", 0.518),
    ("K158H", 0.174),
    ("Q153M", -0.153),
    ("D87E", -0.224),
    ("N96T", -0.0877),
    ("L37D", -0.0765),
    ("S159L", -0.241),
    ("S148D", 0.488),
    ("M163W", 0.598),
    ("A129D", -0.23),
    ("G181N", 0.125),
    ("K82E", 0.0245),
    ("I130N", -0.0924),
    ("G42Y", 0.307),
    ("D91P", 0.307),
    ("T164L", -0.159),
    ("D65G", 0.134),
    ("S61N", -0.737),
    ("D101Q", 0.0405),
    ("G76M", 0.321),
    ("R11V", 0.177),
    ("S184K", -0.0652),
    ("L10K", -0.11),
    ("I130V", 0.000565),
    ("A49D", 0.201),
    ("V16Q", 0.575),
    ("S159G", -1.03),
    ("T68V", 0.247),
    ("S113Y", 0.038),
    ("E125V", 0.114),
    ("A12T", -0.00479),
    ("L117T", 0.178),
]
